Reference for the values: PubChem BioAssay AID1159580

# normalized growth per record follows
- experiment: chemical genetic growth profiling, strain panel (AID 1159580);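 further: tested at 20 µM; growth read once vehicle control cultures reached saturation at 30 °C; 1 = growth at the plate median or of vehicle wells; lower values mean less growth of the strain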
- test.parameters: S. cerevisiae deletion strains, growth OD, locus YGR135W, strain pre9, active compounds read low
Out of some 5,500 compounds screened, about 2,000 (36%) were called active. Inconclusive results (about 18%) are left out. The list shows a part of the results.
Could you respond with only the numeric value?

CN(C)C(=O)Oc1ccc[n+](C)c1: 1.05
COC(=O)[C@@H]1OC(=O)C2OC23[C@@]1(C)CCC1[C@]2(C)C(C[C@@H](O)[C@]13C)C(C)(C)[C@H](OC(C)=O)C[C@@H]2OC(C)=O (some centres undefined): 0.971
CC(C)c1nc(N(C)S(C)(=O)=O)nc(-c2ccc(F)cc2)c1/C=C/[C@@H](O)C[C@@H](O)CC(=O)O: 0.987
COC(=O)[C@@H]1OC(=O)C2OC23[C@@]1(C)CCC1[C@@]2(C)CCC(=O)C(C)(C)C2C[C@@H](OC(C)=O)[C@]13C (some centres undefined): 1.05
COc1cc2c(cc1OC)C1(O)C(=O)c3ccc(O)c(C(=O)O)c3OC1CO2 (centres undefined): 0.98

Request: Quick one: normalized growth of COC1C=CC23c4cc5c(cc4CN(CC2O)[C@@H]3C1)OCO5 (some centres undefined) ?
Result: 1.05

Request: Can you check Cc1ccc(C(=O)c2ccc(CC(=O)O)n2C)cc1 next?
Result: 0.97

Request: Can you check COC1=CC(=O)OC(CCc2ccc(OC)c(OC)c2)C1 (centres undefined) next?
Result: 1.01

Request: Can you check COC(=O)/C(C)=C\CC12OC(C)(C)C3CC(C=C4C(=O)c5c(OC)c6c(c(CC=C(C)C)c5OC431)OC(C)(CCC=C(C)C)C=C6)C2=O (centres undefined) next?
Result: 0.997

---

- experiment: chemical genetic growth profiling, strain panel (AID 1159580)
- test.parameters: S. cerevisiae deletion strains, growth OD, locus YCR088W, strain abp1, active compounds read low
In all, about 5,500 compounds went through this assay and about 2,000 (36%) were called active. About 18% were inconclusive and are not listed. The list shows a part of the results.
readout.kind: normalized growth
Could you respond with only the numeric value?

CC(=O)O[C@@H]1CC2C(C)(C)[C@H](O)CC[C@]2(C)C2CC[C@@]3(C)[C@H](c4ccoc4)OC(=O)C4OC43[C@@]21C (some centres not stated): 1.01
CC(=O)O[C@@H]1CC2C(C)(C)[C@H](O)C=C[C@]2(C)C2CC[C@@]3(C)[C@H](c4ccoc4)OC(=O)C4OC43[C@@]21C (some centres not stated): 1.02
CC(=O)O[C@H]1C[C@@H](OC(C)=O)C(C)(C)C2C[C@@H](OC(C)=O)[C@]3(C)C(CC[C@@]4(C)[C@H](c5ccoc5)OC(=O)[C@H]5O[C@]543)[C@]21C (some centres not stated): 1
CC(=O)OC/C=C(\C)CC/C=C(\C)CC/C=C(\C)CC/C=C(\C)CC/C=C(\C)CC/C=C(\C)CC/C=C(\C)CC/C=C(\C)CCC=C(C)C: 0.995
FC(F)(F)c1cccc(N2CCNCC2)c1: 1.01

Request: Quick one: normalized growth of CC(=O)O[C@H]1C[C@@H](OC(C)=O)C(C)(C)C2C[C@@H](O)[C@]3(C)C(CC[C@@]4(C)[C@H](c5ccoc5)OC(=O)[C@H]5O[C@]543)[C@]21C (some centres not stated) ?
Result: 0.983

Request: Can you check CC(=O)O[C@@H]1CC2C(C)(C)[C@@H](O)CC[C@]2(C)C2CC[C@@]3(C)[C@H](c4ccoc4)OC(=O)[C@H]4O[C@]43[C@@]21C (some centres not stated) next?
Result: 0.988

---

- experiment: chemical genetic growth profiling, strain panel (AID 1159580)
- test.parameters: S. cerevisiae deletion strains, growth OD, locus YMR129W, active compounds read low
Hit rate of the full screen: of about 5,500 compounds, about 2,000 (36%) were called active. Roughly 18% stayed inconclusive and do not appear here. Some of the results follow.
readout.kind: normalized growth
Could you respond with only the numeric value?

NC(=O)CS(=O)C(c1ccccc1)c1ccccc1 (stereo not drawn): 1.01

Request: Quick one: normalized growth of C=CCS(=O)C[C@H](N)C(=O)O (stereo partly drawn) ?
Result: 0.976

Request: Can you check CC(O)(P(=O)(O)O)P(=O)(O)O next?
Result: 0.994

---

- experiment: chemical genetic growth profiling, strain panel (AID 1159580);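 further: tested at 20 µM; growth read once vehicle control cultures reached saturation at 30 °C; 1 = growth at the plate median or of vehicle wells; lower values mean less growth of the strain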
- test.parameters: S. cerevisiae deletion strains, growth OD, locus YMR263W, strain SAP30, active compounds read low
Screen size: about 5,500 compounds; about 2,000 (36%) were called active. Inconclusive results (about 18%) are left out. Some of the results follow.
readout.kind: normalized growth
Could you respond with only the numeric value?

Please review the following examples before continuing.
CCCN1CCC[C@@H]2Cc3[nH]ncc3C[C@H]21: 0.994
COc1ccc2oc(-c3ccccc3)c(OC)c(=O)c2c1: 0.838
COc1ccc2c(=O)c(OC)c(-c3ccccc3)oc2c1: 0.845
CCCN(CCC)S(=O)(=O)c1ccc(C(=O)NCC(=O)O)cc1: 0.989
CC(C)c1ccc2c(c1)c(SC(C)(C)C)c(CC(C)(C)C(=O)O)n2Cc1ccc(Cl)cc1: 1.01

Request: Quick one: normalized growth of CN(C)C(=O)Oc1ccc[n+](C)c1 ?
Result: 1.01

---

- experiment: chemical genetic growth profiling, strain panel (AID 1159580);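 further: tested at 20 µM; growth read once vehicle control cultures reached saturation at 30 °C; 1 = growth at the plate median or of vehicle wells; lower values mean less growth of the strain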
- test.parameters: S. cerevisiae deletion strains, growth OD, locus YPL051W, strain arl3, active compounds read low
Hit rate of the full screen: of about 5,500 compounds, about 2,000 (36%) were called active. About 18% were inconclusive and are not listed. This is one part of the list.
readout.kind: normalized growth
Could you respond with only the numeric value?

NCC[C@@H](O)C(=O)N[C@@H]1C[C@H](N)[C@@H](O[C@H]2O[C@H](CN)[C@@H](O)[C@H](O)[C@H]2O)[C@H](O)[C@H]1O[C@H]1O[C@H](CO)[C@@H](O)[C@H](N)C1O (some centres undefined): 1.02
O=NN(CCCl)C(=O)NCCCl: 0.942
O=c1[nH]c(=O)n(C2C[C@H](O)[C@@H](CO)O2)cc1C(F)(F)F (some centres undefined): 0.981
C1N2CN3CN1CN(C2)C3: 0.984
Clc1ccc(C(c2ccccc2Cl)C(Cl)Cl)cc1 (centres undefined): 0.956
CC(=O)O[C@H]1C[C@@]2(C)[C@@H](C[C@@H](O)C3[C@]2(C)CC[C@H]2[C@H](C)[C@H](O)CC[C@]32C)/C1=C(/CCC=C(C)C)C(=O)O (some centres undefined): 1.04

Request: Quick one: normalized growth of COc1ccc2c(c1)OCC(Cc1ccc(O)c(OC)c1)C2=O (centres undefined) ?
Result: 0.983

Request: Can you check CCC(=O)OC1[C@@H]2CC3=C4CC(=O)O[C@@H](c5ccoc5)[C@]4(C)CCC3[C@@](C)(C2=O)[C@@H](CC(=O)OC)C1(C)C (some centres undefined) next?
Result: 0.982

Request: Can you check CCCCCCCCCCCCCC(=O)OC1C(C)C2(O)C(C=C(CO)CC3(O)C(=O)C(C)=CC32)C2C(C)(C)C12OC(C)=O (centres undefined) next?
Result: 1.02

---

- experiment: chemical genetic growth profiling, strain panel (AID 1159580);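 further: tested at 20 µM; growth read once vehicle control cultures reached saturation at 30 °C; 1 = growth at the plate median or of vehicle wells; lower values mean less growth of the strain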
- test.parameters: S. cerevisiae deletion strains, growth OD, locus YML094W, strain GIM5
Screen size: about 5,500 compounds; about 2,000 (36%) were called active. Inconclusive results (about 18%) are left out. Rule as the data show it: active = normalized growth mostly below about 0.91 (no sharp cut-off); inconclusive = no clear call, values can overlap the other calls; inactive = mostly above about 0.92. The list shows a part of the results.
The categories you may choose from are active, inactive

Example cases with answers are listed next.
FC(F)(F)c1ccc2[nH]c(=S)[nH]c2c1: inactive
CCOC(=O)C(=CNNS(=O)(=O)c1cc(C(F)(F)F)cc(C(F)(F)F)c1)C(=O)OCC: inactive
OCc1nccn1Cc1ccc(Cl)cc1: inactive
N/C(=N/OC(=O)Nc1ccccc1)c1ccc(C2SCCS2)cc1: active
O=C1c2ccccc2C2(c3ccccc3)NCCN12 (configuration not stated): inactive
COC(=O)c1ccsc1N: inactive
O=C(Nc1cc(C(F)(F)F)cc(C(F)(F)F)c1)C(c1ccccc1)C1CCCC1 (configuration not stated): inactive
Cc1c(C)c(C)c(CSc2nc3ccccc3[nH]2)c(C)c1C: inactive

Request: Could you kindly confirm the outcome this assay logged for c1ccc(-c2ccc(-c3csc(-c4cccnc4)n3)cc2)cc1 ?
Result: inactive

Request: Can you check O=S(=O)(NCc1ccc(F)cc1F)c1cccc(C(F)(F)F)c1 next?
Result: inactive

Request: Can you check S=C1NC2(CCCCC2)NN1c1ccccc1 next?
Result: active

Request: Can you check Cc1nn(-c2ccccc2)nc1-c1nnc(-c2ccc(Cl)cc2)o1 next?
Result: inactive

Request: Can you check COC(=O)c1cscc1Sc1ccc(Cl)cc1 next?
Result: inactive

Request: Can you check COc1cscc1C(N)=O next?
Result: inactive

Request: Can you check CCOC(=O)c1cnn(-c2ccc(N)cc2)c1C(F)(F)F next?
Result: active

Request: Can you check Cn1c(=S)[nH]c2cc(C(F)(F)F)ccc21 next?
Result: inactive

Request: Can you check Cc1cc2c3c(c1)c(O)cc(=O)n3CCC2 next?
Result: inactive

Request: Can you check O=C1CCc2cccc3cccc1c23 next?
Result: inactive
